Tested on: IGROV1 ovarian
Assay details: NCI tumour cell line growth inhibition, 48 h

Compound: C[C@]12CCC(=O)C=C1CC[C@@H]1[C@@H]2CC[C@]2(C)C(=O)NC(=O)C[C@@H]12
Output unit: µM
Value qualifier: >
TGI: 100

Compound: COc1ccc2nc3cccc([N+](=O)[O-])c3c(NCCCCCC(=O)O)c2c1
Output unit: µM
Value qualifier: =
TGI: 1.16

Compound: CNc1ncnc2c1ncn2C1C=CC(COS(N)(=O)=O)C1 (stereo not given)
Output unit: µM
Value qualifier: >
TGI: 100

Compound: Cn1c2ccccc2n2c(N=O)c(-c3ccccc3)nc12
Output unit: µM
Value qualifier: >
TGI: 100

Compound: C=C1CCC2C3(C)COC(c4ccc(N(C)C)cc4)OC3CCC2(C)C1C/C=C1/C(=O)OCC1O (stereo not given)
Output unit: µM
Value qualifier: =
TGI: 6.02

Compound: CCc1cc(C(=O)OC)cn1C(=N)c1ccc(Cl)cc1
Output unit: µM
Value qualifier: >
TGI: 100

Compound: C#Cc1c(F)ccc2cc(O)cc(-c3ncc4c(N5CC6CCC(C5)N6)nc(OC[C@@]56CCCN5C[C@H](F)C6)nc4c3F)c12
Output unit: µM
Value qualifier: =
TGI: 29.9

Compound: COC(=O)C1(C)CCC(c2ccc(C)cc2)=C(CC(=O)O)C1 (stereo not given)
Output unit: µM
Value qualifier: >
TGI: 100

Compound: Clc1ccc(C2SCc3nc4ccccc4n32)c(Cl)c1 (stereo not given)
Output unit: µM
Value qualifier: =
TGI: 31.5

Compound: COC(=O)C1(CCC(C)=O)CCCCCC1=O (stereo not given)
Output unit: µM
Value qualifier: >
TGI: 100
